- Test system: human liver microsomes, metabolic stability half-life
- TEST DETAILS: NCATS Human Liver Microsomal (HLM) Stability Profiling
- ASSAY CONTEXT: higher = more stable; screened at 1 µM (by protocol)
- Experimental: Assay submitter (PI): Dr. Pranav Shah NIH Center for Advancing Translational Sciences Pharmacokinetic issues were the leading cause of drug attrition, accounting for approximately 40% of all cases before the turn of the century. […] The substrate depletion method, also called the in vitro t1/2 method was used to analyze test compounds. […] Sample quantification and analysis was performed using a previously described method (Shah et al., 2016, Siramshetty et al., 2020). […]
MEASURED PARAMETER: half-life (min)
One number for each entry, in min.

                                   compound                           target_of_assay  measured_parameter  endpoint_value
0  Cc1noc(C)c1-c1cc(O)cc(C(O)c2ccccc2)c1 (stereo not drawn)  human liver microsomes, metabolic stability half-life           half-life            46.2
1  CC(CN(C)C)CN1C2=C(CCCC2)SC2CCCCC21 (stereo not drawn)  human liver microsomes, metabolic stability half-life           half-life            14.3
2  COc1ccc(CC(=O)NCC(c2cccs2)S(=O)(=O)c2ccc(Cl)cc2)cc1 (stereo not drawn)  human liver microsomes, metabolic stability half-life           half-life            4.19
3  O=C(CSc1nc2ccccc2n1Cc1cccc(Cl)c1)N1CCN(c2ccc(F)cc2)CC1  human liver microsomes, metabolic stability half-life           half-life            0.81

Could you tell me half-life for each of these compounds? They are listed below.
1. O=C(OCC(O)CO)c1ccccc1Nc1ccnc2c(C(F)(F)F)cccc12 (stereo not drawn)
2. CC(C)(C)c1coc([C@@H]2COCCN2Cc2cccc(C#N)c2)n1
3. CNCC[C@@H](Oc1ccccc1C)c1ccccc1
4. Cc1cccc(N2CCN(C(=O)c3cn(C4CCCCC4)c(=O)c4c3c3ccccc3n4C)CC2)c1C
5. COc1ccc2nc([C@H]3CCN(Cc4cccc(C#N)c4)C3)[nH]c2c1
6. CCNc1nc(Cl)nc(NCC)n1

A.
1: 34.6; 2: 10.4; 3: 23.9; 4: 0.76; 5: 12.3; 6: 59.4

---

- Tested on: human liver microsomes, metabolic stability half-life
- TEST DETAILS: NCATS Human Liver Microsomal (HLM) Stability Profiling
- ASSAY CONTEXT: higher = more stable; screened at 1 µM (by protocol)
MEASURED PARAMETER: half-life

The following compounds have reported results that may help.
>>> print(df.to_string())
                    item_smiles                           target_of_assay  endpoint_value
0  C/C(=N/NC(=O)c1ccncc1)C(=O)O  human liver microsomes, metabolic stability half-life           > 2 h
1           CN1C(C)(C)CCCC1(C)C  human liver microsomes, metabolic stability half-life           > 2 h

API: the following record is the query input.
Q. Find the recorded half-life belonging to "CCOc1cc(=O)n2c(c1C(=O)Nc1ccc(C#N)cc1)CCCC2" and report it.
A. > 2 h

---

- System: human liver microsomes, metabolic stability half-life
- TEST DETAILS: NCATS Human Liver Microsomal (HLM) Stability Profiling
- ASSAY CONTEXT: higher = more stable; screened at 1 µM (by protocol)
MEASURED PARAMETER: half-life

                                   compound  measured_parameter  endpoint_value
0    CC(=O)N1CCC(Cc2ccc(C(=O)NC3CC3)cc2)CC1           half-life           > 2 h
1  COc1ccc(NC(=O)Cn2ccn(-c3ccc(C)c(C)c3)c(=O)c2=O)cc1Cl           half-life           > 2 h
2                        COc1ccccc1N1CCNCC1           half-life           > 2 h
3     CN(C)c1ccc2nc3ccc(=[N+](C)C)cc-3sc2c1           half-life           > 2 h

Could you tell me half-life for each of these compounds? They are listed below.
1. N#Cc1cn([C@@H]2O[C@H](CO)[C@H](O)[C@@H]2O)c2ncnc(N)c12
2. CC(C)(N)Cc1ccccc1Cl

A.
> 2 h
> 2 h

Could you tell me half-life for each of these compounds? They are listed below.
1. Cc1nc(NC(=O)N2CCCC2C(N)=O)sc1-c1ccnc(C(C)(C)C(F)(F)F)c1 (configuration not stated)
2. CC(=O)Nc1cccc(O)c1
3. CN(C)c1nc(Cc2ccc(NC(=O)c3ccc4ccccc4c3)cc2)nc(Cl)c1CC(=O)O
4. CC(C)(C)NCC(O)COc1ccc(NC(=O)NC2CCCCC2)cc1 (configuration not stated)
5. CCN1CCCC1=O
6. COc1cccc2c1C(=O)c1c(O)c3c(c(O)c1C2=O)C[C@@](O)(C(=O)CO)C[C@@H]3O[C@H]1C[C@H](N)[C@H](O[C@@H]2CCCCO2)[C@H](C)O1

A.
["> 2 h", "> 2 h", "> 2 h", "> 2 h", "> 2 h", "> 2 h"]

Could you tell me half-life for each of these compounds? They are listed below.
1. COC(=O)/C=C\C(=O)OC
2. O=C(NCC1CCN(Cc2cccc(Cl)c2)CC1)[C@@H]1CCCN(c2ncnc3c2nc2n3CCCC2)C1
3. CCN1C(=O)NC(c2ccccc2)C1=O (configuration not stated)
4. COc1cccc(NC(=O)c2oc3ccc(S(=O)(=O)N4CCC5(CC4)OCCO5)cc3c2C)c1
5. COc1cc(Nc2nc3ccccc3nc2NS(=O)(=O)c2ccc(NC(=O)c3ccc(C)c(OC)c3)cc2)cc(OC)c1
6. O=c1c(-c2ccccc2)c1-c1ccccc1

A.
1. > 2 h
2. 0.144 h
3. > 2 h
4. 0.204 h
5. > 2 h
6. 0.0595 h
